Values from ChEMBL document CHEMBL1152253

# system.name: Exportin-1 (Homo sapiens) (UniProt O14980)
# Sequence (O14980 whole entry): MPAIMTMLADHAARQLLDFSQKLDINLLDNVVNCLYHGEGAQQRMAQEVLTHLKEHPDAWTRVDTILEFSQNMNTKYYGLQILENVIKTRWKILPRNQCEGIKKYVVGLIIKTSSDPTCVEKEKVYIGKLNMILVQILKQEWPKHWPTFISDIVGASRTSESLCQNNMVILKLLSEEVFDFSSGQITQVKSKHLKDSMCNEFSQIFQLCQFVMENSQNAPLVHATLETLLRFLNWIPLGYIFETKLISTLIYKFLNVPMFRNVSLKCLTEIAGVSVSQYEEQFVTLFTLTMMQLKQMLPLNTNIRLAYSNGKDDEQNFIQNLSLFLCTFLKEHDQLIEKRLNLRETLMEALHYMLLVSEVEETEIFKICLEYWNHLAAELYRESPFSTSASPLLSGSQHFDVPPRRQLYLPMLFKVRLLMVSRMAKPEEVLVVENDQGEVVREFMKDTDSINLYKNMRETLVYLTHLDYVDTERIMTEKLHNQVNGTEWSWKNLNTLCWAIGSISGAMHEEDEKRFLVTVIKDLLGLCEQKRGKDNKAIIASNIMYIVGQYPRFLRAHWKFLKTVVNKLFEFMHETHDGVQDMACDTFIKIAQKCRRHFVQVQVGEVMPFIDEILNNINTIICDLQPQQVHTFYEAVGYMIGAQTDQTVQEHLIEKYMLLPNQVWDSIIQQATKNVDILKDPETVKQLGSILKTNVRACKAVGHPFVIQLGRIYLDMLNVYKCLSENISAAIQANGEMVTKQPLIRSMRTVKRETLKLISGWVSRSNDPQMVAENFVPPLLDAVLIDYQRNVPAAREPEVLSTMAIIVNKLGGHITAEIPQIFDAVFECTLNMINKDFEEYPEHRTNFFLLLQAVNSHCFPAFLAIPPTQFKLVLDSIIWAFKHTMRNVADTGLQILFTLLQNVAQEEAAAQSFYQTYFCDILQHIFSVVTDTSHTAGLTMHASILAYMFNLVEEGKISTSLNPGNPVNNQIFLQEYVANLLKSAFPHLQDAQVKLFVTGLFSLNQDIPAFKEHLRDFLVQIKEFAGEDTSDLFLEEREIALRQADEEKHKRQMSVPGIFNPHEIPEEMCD
# protocol.description: Inhibition of CRM1-mediated nucleocytoplasmic transport of RevM5 mutant in HEK293 cells assessed as RevM5-GFP nuclear localization at 0.4 ug/ml after 2 hrs by fluorescence microscopy
# Format: cell-based
Active and inactive are the calls of the source. The rule behind the calls is not given here.
The categories you may choose from are 1 (yes) (active), 0 (no) (inactive)

Use these answered entries as a reference point.
[[record]]
chemical_structure = "CCOC(=O)/C=C\\n1nnc(-c2ccc(Cl)cc2)n1"
system_name = "Exportin-1 (Homo sapiens) (UniProt O14980)"
assigned_category = "0 (no)"

[[record]]
chemical_structure = "CCOC(=O)/C=C/n1nnnc1-c1cccc(Cl)c1"
system_name = "Exportin-1 (Homo sapiens) (UniProt O14980)"
assigned_category = "0 (no)"

[[record]]
chemical_structure = "CCOC(=O)/C=C\\n1nnc(-c2cc(Cl)ccc2N)n1"
system_name = "Exportin-1 (Homo sapiens) (UniProt O14980)"
assigned_category = "1 (yes)"

[[record]]
chemical_structure = "CCOC(=O)/C=C/n1nnnc1-c1cccc(Br)c1"
system_name = "Exportin-1 (Homo sapiens) (UniProt O14980)"
assigned_category = "0 (no)"

[[record]]
chemical_structure = "CCOC(=O)/C=C/n1nnc(-c2cccc(Br)c2)n1"
system_name = "Exportin-1 (Homo sapiens) (UniProt O14980)"
assigned_category = "0 (no)"

[[record]]
chemical_structure = "Ic1cccc(-c2nnn[nH]2)c1"
system_name = "Exportin-1 (Homo sapiens) (UniProt O14980)"
assigned_category = "0 (no)"


Any idea what this test logged for "Brc1cccc(-c2nnn[nH]2)c1" ?
0 (no)

Any idea what this test logged for "CCOC(=O)/C=C/n1nnnc1-c1ccccc1" ?
0 (no)

Any idea what this test logged for "CCOC(=O)/C=C/n1ccc(-c2ccccc2)n1" ?
0 (no)

Any idea what this test logged for "Fc1cccc(-c2nnn[nH]2)c1" ?
0 (no)

Any idea what this test logged for "c1ccc(-c2nnn[nH]2)cc1" ?
0 (no)
